test.protocol: NCI Yeast Anticancer Drug Screen. Data for the sgs1 mgt1 strain (AID 161);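 further: 0% = growth of cultures given vehicle only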
condition.context: S. cerevisiae sgs1 mgt1 strain, at 50.0 µM, stronger effect = higher value
The panel holds about 79,000 compounds, 15% with a hit somewhere; the sample as a whole holds those more often.
observed.property: growth inhibition (%)

# compound, unit.abbrev, obs.value
data = [
    ("Fc1cccc(C2N(Cc3ccc(N(CCCl)CCCl)cc3Cl)CCCN2Cc2ccc(N(CCCl)CCCl)cc2Cl)c1", "%", -18.4),
    ("N#Cc1ccc(N=Cc2c([O-])ccc3ccccc23)cc1.[C-]#[O+].[C-]#[O+].[Ir]", "%", 61.8),
    ("CCn1c(O)c(C(=O)NC(C)c2ccc([N+](=O)[O-])cc2)c(=O)n(CC)c1=S (stereo not given)", "%", 90.6),
    ("CCOP(=O)(OCC)/C(C#N)=C/c1cccc(C)c1", "%", 65.8),
    ("CNC(=O)Oc1ccccc1/C=N\\Sc1ccc(Cl)cc1", "%", 98.9),
]
